Tested on: TK-10
method: NCI tumour cell line growth inhibition, 48 h
The source made the active and inactive calls. No stated cut-off is given here; in the data, active = GI50 up to about 1.1 µM and inactive = higher.
The reply should name one outcome from yes = active, no = inactive

Nc1nc(I)nc2c1ncn2C1OC(COS(N)(=O)=O)C(O)C1O (centres undefined)    yes
COC(=O)c1c(-c2cc(OC)c(OC)c(OC)c2)oc2ccccc2c1=O    no
CC(=O)O[C@H]1C(=O)[C@@]2(C)C(C(OC(=O)c3ccccc3)[C@]3(O)CC(OC(=O)C(O)C(NC(=O)c4ccccc4)c4ccc(C)cc4)C(C)=C1C3(C)C)[C@]1(OC(C)=O)CO[C@@H]1C[C@@H]2O (some centres undefined)    no
CCOP(=O)(CN1CCNCCNCC1)OCC    no
CC(=O)Oc1ccc2c(c1)C(=O)c1nc(C)c(C)nc1C2=O    no
CS(=O)(=O)OCCN(CCOS(C)(=O)=O)c1ccc(/C=N/c2ccc(-c3csc(Cc4ccccc4)n3)cc2)c(Cl)c1    no
CO[C@@]12[C@H](COC(N)=O)C3=C(C(=O)C(C)=C(N)C3=O)N1C[C@H]1[C@@H]2N1C (some centres undefined)    no
CCNC(C)(C)C(SS)c1ccc(Br)cc1 (centres undefined)    no

We next turn to a different molecule, shown below.
// query Assay outcome for Cc1cc2c(cc1C)C(=O)C1(C2)Cc2cc3c(cc2C1=O)CCC3 (centres undefined) : what was it?
// result no
